- Tested on: 997726-040-R-J2-PDC tumor spheroids, viability
- assay_overview: Anticancer human tumor 997726-040-R-J2-PDC patient-derived squamous cell lung carcinoma cell line growth inhibition [PI3K]
- settings: second compound 1 µM; first compound 3.16 µM; stronger effect = lower value; spheroids with HUVEC and MSC
attribute_measured: viability, T/C (%)

- molecule: "CC1(C)CCC(CN2CCN(c3ccc(C(=O)NS(=O)(=O)c4ccc(NCC5CCOCC5)c([N+](=O)[O-])c4)c(Oc4cnc5[nH]ccc5c4)c3)CC2)=C(c2ccc(Cl)cc2)C1 + Cc1nc(NC(=O)N2CCCC2C(N)=O)sc1-c1ccnc(C(C)(C)C(F)(F)F)c1"
  system_under_test: "997726-040-R-J2-PDC tumor spheroids, viability"
  readout_value: 39.2
- molecule: "C#Cc1c(F)ccc2cc(O)cc(-c3ncc4c(N5CC6CCC(C5)N6)nc(OCC56CCCN5CC(F)C6)nc4c3F)c12 (configuration not stated) + CC(Nc1ncnc2nc[nH]c12)c1cc2cccc(Cl)c2c(=O)n1-c1ccccc1"
  system_under_test: "997726-040-R-J2-PDC tumor spheroids, viability"
  readout_value: 79.9

----------
- Test system: 997726-040-R-J2-PDC tumor spheroids, viability
- assay_overview: Anticancer human tumor 997726-040-R-J2-PDC cell line growth inhibition [PI3K];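 further: spheroids exposed to compounds for seven days before readout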
- settings: second compound 0.0316 µM; first compound 3.16 µM; stronger effect = lower value; spheroids with HUVEC and MSC

- molecule: "CC1(C)CCC(CN2CCN(c3ccc(C(=O)NS(=O)(=O)c4ccc(NCC5CCOCC5)c([N+](=O)[O-])c4)c(Oc4cnc5[nH]ccc5c4)c3)CC2)=C(c2ccc(Cl)cc2)C1 + Cc1nc(NC(=O)N2CCCC2C(N)=O)sc1-c1ccnc(C(C)(C)C(F)(F)F)c1"
  viability, T/C (%): 76
- molecule: "C=CC(=O)N1CCN(c2nc(=O)n(-c3c(C)ccnc3C(C)C)c3nc(-c4c(O)cccc4F)c(F)cc23)C(C)C1 (configuration not stated) + CC(Nc1ncnc2nc[nH]c12)c1cc2cccc(Cl)c2c(=O)n1-c1ccccc1"
  viability, T/C (%): 123

----------
- Tested on: 997726-040-R-J2-PDC tumor spheroids, viability
- assay_overview: Anticancer human tumor 997726-040-R-J2-PDC cell line growth inhibition [PI3K];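 further: spheroids exposed to compounds for seven days before readout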
- settings: second compound 0.0316 µM; first compound 0.0316 µM; stronger effect = lower value; spheroids with HUVEC and MSC
// assign 1 if viability, T/C falls strictly below 90%, else 0 (ties count as 0)

- compound: "Cn1ncnc1[C@H]1c2n[nH]c(=O)c3cc(F)cc(c23)N[C@@H]1c1ccc(F)cc1 + CC(Nc1ncnc2nc[nH]c12)c1cc2cccc(Cl)c2c(=O)n1-c1ccccc1"
  label_class: 0
- compound: "Cn1nccc1Nc1nccc(-c2ccn(C(CO)c3ccc(Cl)c(F)c3)c(=O)c2)n1 (stereo not given) + CC(Nc1ncnc2nc[nH]c12)c1cc2cccc(Cl)c2c(=O)n1-c1ccccc1"
  label_class: 0
- compound: "CNC(=O)c1ccc(N2C(=S)N(c3ccc(C#N)c(C(F)(F)F)c3)C(=O)C2(C)C)cc1F + COc1c(OCCCN2CCOCC2)ccc2c3n(c(=NC(=O)c4cnc(N)nc4)nc12)CCN3"
  label_class: 1
- compound: "Cn1ncnc1[C@H]1c2n[nH]c(=O)c3cc(F)cc(c23)N[C@@H]1c1ccc(F)cc1 + COc1c(OCCCN2CCOCC2)ccc2c3n(c(=NC(=O)c4cnc(N)nc4)nc12)CCN3"
  label_class: 1
